Target or system Carbonic anhydrase 1 (Homo sapiens, UniProt P00915): recorded pKi listed per item.
Note on units: pKi is unitless, being -log10 of a concentration expressed in mol/L.

Study these solved cases before continuing.
>>> assay_result("NS(=O)(=O)c1ccc(CNC(=O)c2ccc(-c3ccccc3)cc2)cc1")
5.68
>>> assay_result("NS(=O)(=O)c1ccc(CNC(=O)c2ccccc2Cc2ccccc2)cc1")
7.01
>>> assay_result("NS(=O)(=O)c1ccc(CNC(=O)c2ccc(Br)cc2)cc1")
7.02

Carbonic anhydrase 1 (Homo sapiens, UniProt P00915) / pKi / `NS(=O)(=O)c1ccc(CNC(=O)c2cc(Cl)ccc2Cl)cc1` : value?
7.11

All figures here come from ChEMBL document CHEMBL4725482.
